- target or test system: human GLP-1 receptor (GLP1R) (human, UniProt P43220 24-463)
- procedure details: cell-based or functional assay
Numbered stars: 1 amine (or outer) side, 2 acyl side, 3 side chain; on linkers, the order of the positions; unused ones are H or OH. Square brackets hold non-standard residues; d marks the D form. Side chains are listed from the residue outwards. Ends that are not written are not given here. * marks the point of attachment. Phe(4-CH2NH2) = NCc1ccc(C[C@H](N)C(=O)O)cc1; C18 diacid = O=C(O)CCCCCCCCCCCCCCCCC(=O)*; C16 diacid = O=C(O)CCCCCCCCCCCCCCC(=O)*; γGlu = O=C(O)[C@H](CCC(=O)[*:2])N[*:1]; Met(O2) = CS(=O)(=O)CC[C@H](N)C(=O)O; αMeD = C[C@](N)(CC(=O)O)C(=O)O; αMeS = C[C@](N)(CO)C(=O)O; Nle = CCCC[C@H](N)C(=O)O; AEEA = NCCOCCOCC(=O)O; Aib = CC(C)(N)C(=O)O
Recorded GLP1R EC50 human by entry
Dear colleague, please return just the value in nM, with no unit written.

# count of solved cases: 4
• H[Aib]QGTFTSDYSKYLDARAAK([AEEA-AEEA-γGlu-C20‑OH])DFVQWL[Met(O2)][αMeD]T-NH2 [TP565] = 2.26
• H[αMeS]QGTFTSD[Phe(4-CH2NH2)]([AEEA-AEEA-γGlu-C16 diacid])SKYLD[Aib]RAAQDFVQWLLATK-{γGlu-NH2} [TP660] = 3.59
• H[Aib]QGTFTSDYSKYLDARAA[Nle]([1,2,3‑triazole‑5-AEEA-AEEA-γGlu-C18 diacid])DFVQWL[Met(O2)]DT-NH2 [TP712] = 0.45
• H[Aib]QGTFTSDYSKYLD[Aib]RAAQDFVQWLLK([AEEA-AEEA-γGlu-C18 diacid])TK-{γGlu-NH2} [TP683] = 0.62

Below: the item to evaluate.
Problem: Report measured GLP1R EC50 human; entry is H[αMeS]QGTFTSDYSKYLD[Aib]RAAK([AEEA-AEEA-γGlu-C20‑OH])DFVQWL[Met(O2)]DT-NH2 [TP592]
Result: 2.42

Data provenance is patent US20200270325A1.
